Target: human glucocorticoid receptor (Homo sapiens)
Construct: purified human recombinant full-length glucocorticoid receptor (2 nM); purchased Invitrogen Part #2893
Sequence (P04150 1-777): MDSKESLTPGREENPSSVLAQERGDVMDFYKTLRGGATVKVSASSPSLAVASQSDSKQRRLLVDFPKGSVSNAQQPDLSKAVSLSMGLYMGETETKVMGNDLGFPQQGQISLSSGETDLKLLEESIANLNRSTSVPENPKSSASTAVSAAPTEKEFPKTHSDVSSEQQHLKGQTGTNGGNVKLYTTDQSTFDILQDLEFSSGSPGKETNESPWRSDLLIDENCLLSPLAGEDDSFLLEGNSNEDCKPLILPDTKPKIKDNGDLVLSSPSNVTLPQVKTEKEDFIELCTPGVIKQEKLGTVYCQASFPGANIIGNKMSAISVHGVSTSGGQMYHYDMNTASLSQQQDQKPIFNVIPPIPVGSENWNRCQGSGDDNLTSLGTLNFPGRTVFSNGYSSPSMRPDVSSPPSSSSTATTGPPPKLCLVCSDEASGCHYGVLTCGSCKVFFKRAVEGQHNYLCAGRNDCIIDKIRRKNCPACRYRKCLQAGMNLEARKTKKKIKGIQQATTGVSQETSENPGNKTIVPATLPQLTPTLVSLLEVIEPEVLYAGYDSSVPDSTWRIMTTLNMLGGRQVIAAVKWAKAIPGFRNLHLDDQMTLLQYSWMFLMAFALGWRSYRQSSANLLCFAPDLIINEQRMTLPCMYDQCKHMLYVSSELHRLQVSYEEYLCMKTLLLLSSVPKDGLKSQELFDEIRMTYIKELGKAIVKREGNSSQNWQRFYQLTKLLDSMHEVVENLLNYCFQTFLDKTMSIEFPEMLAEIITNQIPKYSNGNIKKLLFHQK
Experiment: Glucocorticoid Receptor Binding Assay (I), fluorescence polarization competitor kit
Conditions: purified human recombinant full-length GR, Fluormone GS Red, 2 h room temperature
Values of Ki strictly less than 30 nM map to criterion met, and values of at least 30 nM map to criterion not met.

>  <compound>
C[C@]12Cn3cnc(-c4ccccc4)c3C=C1CCC[C@@H]2[C@](C)(O)c1ccccc1 (racemic) [Example 35]

>  <group.label>
criterion met

$$$$
>  <compound>
C[C@]12Cn3cnc(-c4ccccc4)c3C=C1CCC[C@@H]2[C@@H](O)Cc1ccccc1 (racemic) [Example 20]

>  <group.label>
criterion met

$$$$
>  <compound>
CC[C@@](O)(c1csc2ccccc12)[C@H]1CCCC2=Cc3c(-c4ccccc4)ncn3C[C@@]21C (racemic) [Example 37]

>  <group.label>
criterion not met

$$$$
>  <compound>
C[C@]12Cn3cnc(-c4ccc(F)cc4)c3C=C1CCC[C@@H]2[C@H](O)C(F)(F)F [Example 91]

>  <group.label>
criterion not met

$$$$
>  <compound>
C[C@]12Cn3cnc(-c4ccc(F)cc4)c3C=C1CCC[C@@H]2[C@](C)(O)C#Cc1ccccc1 [Example 70]

>  <group.label>
criterion not met

$$$$
>  <compound>
CC(C)(C)NC(=O)NCC[C@H]1CCCC2=Cc3c(-c4ccc(F)cc4)ncn3C[C@@]21C [Example 7]

>  <group.label>
criterion not met

$$$$
>  <compound>
CC(C)C[C@@](C)(O)[C@H]1CCCC2=Cc3c(-c4ccc(F)cc4)ncn3C[C@@]21C [Example 59]

>  <group.label>
criterion met

$$$$
>  <compound>
C[C@]12Cn3cnc(-c4ccccc4)c3C=C1CCC[C@@H]2[C@H](O)c1ccccc1 (racemic) [Example 12]

>  <group.label>
criterion not met

$$$$

Q: Please state whether Ki is below 30 nM for C[C@]12Cn3cnc(-c4ccc(F)cc4)c3C=C1CCC[C@@H]2[C@](C)(O)c1csc2ccccc12 (single isomer, unassigned) [Example 46]
Result: criterion met

Q: Item: C[C@]12Cn3cnc(-c4ccc(F)cc4)c3C=C1CCC[C@@H]2[C@]1(C)OC(=N)c2ccccc21 [Example 84]
Result: criterion not met
